system: TE-1; assay: cells; type: functional, cell-based; conditions: Homo sapiens;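 note: growth inhibition of the human TE-1 cell line, read out with a cell viability assay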
Description: SANGER: Inhibition of human TE-1 cell growth in a cell viability assay.
recorded-endpoint: IC50

Solved cases below.
compound	recorded-endpoint	value-observed
Cn1cc(/C=C2\C(=O)Nc3cccnc32)c2ccccc21	IC50	> 2000 nM
Fc1cc(-c2cc[nH]/c(=N/c3ccc(-n4cnc(N5CCOCC5)n4)cc3)n2)cc(N2CCOCC2)c1	IC50	> 5120 nM
O=c1cc(N2CCOCC2)oc2c(-c3cccc4c3sc3ccccc34)cccc12	IC50	> 2000 nM

From here, focus on the item given below.
Recall and state the measured IC50 for CO[C@@]12[C@H](COC(N)=O)C3=C(C(=O)C(C)=C(N)C3=O)N1C[C@@H]1N[C@@H]12 [MITOMYCIN] .
165 nM

Values compiled from ChEMBL document CHEMBL1201861.
